tested on: Transient receptor potential cation channel subfamily C member 4 (mouse); assay: TRPC4 modulation by TRPC6 hit compounds, confirmation, selectivity assay for TRPC6 modulator project, cell-based, HEK293 TRPC4/mu-opioid, membrane potential dye, mouse (AID 488927); conditions: membrane potential fluorescence, at 10 µM
The list shows a part of the results. The source made the active and inactive calls.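 The calls were made as follows: active = membrane potential signal moved up or down beyond 5 SD of buffer control wells, in both duplicate plates, actives on both sides; inactive = the rest.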
Assign a class; possible classes are class 1 for active, class 0 for inactive

Example cases with answers are listed next.
1. CC(C)c1ccc(NC(=O)Cn2ncc3ccccc32)cc1 : class 0
2. Cc1ccc2c(c1)C1CN(C)CCC1N2C(=S)Nc1ccc(Cl)cc1Cl (stereo unspecified) : class 1
3. COc1cc2c(cc1OC)C(/C=C/c1ccco1)=NCC2 : class 1
4. CCCCN(C)CCCNC(=O)c1cc(-c2cccs2)nc2ccccc12 : class 1
5. O=C1c2ccccc2C(=O)c2c1cccc2N1CCN(CCO)CC1 : class 1

Which outcome was assigned to CCOC(=O)C1=NN(c2ccc(Cl)cc2)/C(=C/C2=NCCc3cc(OC)c(OC)cc32)S1 in this test?
class 1

Which outcome was assigned to Cc1cccc(NC(=S)NCCN(C2CCCCC2)C2CCCC2)c1 in this test?
class 1

###

assay: calcium flux activation in mu-opioid HEK293 cells, confirmation, counter-screen for TRPC4 activator project, cell-based, HEK293 mu-opioid receptor line (AID 449723); conditions: Fluo-4 calcium fluorescence, at 10 µM;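 also: counter screen cells carry the mu-opioid receptor alone and lack TRPC4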
Activity calls are given as the source filed them.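 Rule for the calls: active = hit in primary screen, with calcium signal over 5 SD above buffer well mean in both duplicates; inactive = the rest.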
Assign a class; possible classes are active, inactive

Example cases with answers are listed next.
1) O=c1c2cc(Br)ccc2nc(-c2ccc(Cl)cc2)n1O : active
2) CCOc1ccc2ncc(C(=O)c3ccc(OC)cc3)c(N3CCN(CC)CC3)c2c1 : inactive
3) CCOc1ccccc1CN1CCNC(=O)C1CC(=O)NCCc1ccccn1 (stereo unspecified) : inactive
4) O=C(NNC(=S)NC(=O)c1ccccc1Cl)c1cccc([N+](=O)[O-])c1 : active
5) Cc1ccccc1NC(=S)NCCc1ccccn1 : inactive

Which outcome was assigned to CN(C)C(CNC(=O)c1ccc(C(F)(F)F)cc1)c1ccco1 (stereo unspecified) in this test?
inactive

Which outcome was assigned to CCOC(=O)C1=NN(C(=O)c2ccc(C)cc2)C(O)(c2ccc(Cl)cc2)C1 (stereo unspecified) in this test?
active

Which outcome was assigned to CN(C)CCN(C(=O)C1CCCCC1)c1nc2cc3c(cc2s1)OCO3 in this test?
inactive

###

assay: calcium flux inhibitors in TRPC4/5HT1a cells, confirmation, counter-screen for TRPC4 inhibitor project, cell-based, second counter screen, HEK293 TRPC4/5HT1a, Fluo-4 (AID 434978); settings: Fluo-4 calcium flux, at 10 µM, serotonin added to trigger calcium flux;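 also: serotonin given first at submaximal then at maximal dose after compound preincubation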
Calls of active or inactive are those of the source.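 The calls were made as follows: active = primary screen active whose calcium signal fell more than 3 SD beyond the full-serotonin control mean in both duplicate plates; inactive = the rest.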
Assign a class; possible classes are t = active, f = inactive

Which outcome was assigned to Cc1ccccc1N(CC(=O)N/N=C/c1ccc(F)cc1)C(=O)c1ccccc1 in this test?
f

Which outcome was assigned to Cc1cccc2cc(C(c3nnnn3Cc3ccccc3)N3CCN(C)CC3)c(=O)[nH]c12 (stereo unspecified) in this test?
f

Which outcome was assigned to CN(C)CCCN(C(=O)c1ccc(S(=O)(=O)N(C)C)cc1)c1nc2ccc(F)cc2s1 in this test?
f

Which outcome was assigned to COc1ccc(C(=O)NC(=S)NNC(=O)CCc2ccccc2)cc1 in this test?
f

Which outcome was assigned to COc1ccc(C2Nc3ccccc3C(=O)N2Cc2ccco2)cc1COc1ccc(NC(C)=O)cc1 (stereo unspecified) in this test?
f

Which outcome was assigned to Cc1onc(-c2ccccc2)c1C(=O)NNC(=S)NC(=O)c1ccc(Br)cc1 in this test?
f

Which outcome was assigned to CC1CCCN(CCCNC(=O)c2ccc3c(c2)N(Cc2ccccc2F)C(=O)c2ccccc2S3(=O)=O)C1 (stereo unspecified) in this test?
f

Which outcome was assigned to CC(C)(C)c1cc(Cl)ccc1OCCn1ccnc1 in this test?
f

Which outcome was assigned to CCCCC(=O)NNC(=S)NC(=O)C(c1ccccc1)c1ccccc1 in this test?
f

Which outcome was assigned to O=C(CCC1CCCC1)c1c(O)c2ccccc2oc1=O in this test?
f

Which outcome was assigned to CCn1c(N)[n+](CC(=O)Nc2ccc(SC(F)F)cc2)c2ccccc21 in this test?
f

Which outcome was assigned to Cc1ccc(COn2c(-c3ccc(Cl)cc3Cl)nc3ncccc32)cc1 in this test?
f

Which outcome was assigned to CCN1/C(=C\c2ccc3ccccc3[n+]2CC)Sc2cc(C)ccc21 in this test?
f

Attribution: PubChem BioAssay
